- ASSAY_TARGET: SASH1
- RUN_DESCRIPTION: pooled miR-30 sensor sort-seq; sequence = guide strand
- PARTICULARS: shRNA
Decision: sensor-assay potency score (higher = more potent) >= 0.1 yields Y, all other cases yield N.

Reference set (5 entries):
>>> assigned_category("TAACTCTTGAGTCTGTTACTTT")
"N"
>>> assigned_category("TTTCGTAGCATCCTGAGTCTCG")
"Y"
>>> assigned_category("TTGACCATCATCATTAGCTGAA")
"Y"
>>> assigned_category("TAGATGAACTTGAACGTGCCGA")
"Y"
>>> assigned_category("TATTTTTTAGACATTCTCTTTC")
"N"

Consider the additional sequence presented here.
Exam item: decide whether the reported sensor-assay potency score (higher = more potent) for `TAACCTCTTAAACTTCACCGAC` is at least 0.1.
N

---

Listed below: sensor-assay potency score (higher = more potent) values for each entry.
- ASSAY_TARGET: HAX1
- RUN_DESCRIPTION: pooled miR-30 sensor sort-seq; sequence = guide strand
- PARTICULARS: shRNA
Keep the answer to the number alone.

>>> quantitative_readout("TTACTGTAGTCTCTGTCCGGCC")
-0.884
>>> quantitative_readout("ACTTCTTGCATCACTCTCCAAG")
-1.46
>>> quantitative_readout("TTGGTCACAGAGATGCTCTTGA")
0.864
>>> quantitative_readout("TACTTAAGCATTGAGTCCCGAA")
-0.493
>>> quantitative_readout("TTATCGTGGAAACGTATCCCTC")
-1.22
>>> quantitative_readout("TAGGACTGCTATCTGCTTCGTG")
0.298

Kindly review the next sequence as well.
So, `TTCACTATTCCACATATCCAAG` ? Its sensor-assay potency score (higher = more potent) was -1.52

---

- ASSAY_TARGET: OTOP1
- RUN_DESCRIPTION: pooled miR-30 sensor sort-seq; sequence = guide strand
- PARTICULARS: shRNA
MEASURED_ENDPOINT: sensor-assay potency score (higher = more potent)
Keep the answer to the number alone.

Some sequences with known sensor-assay potency score (higher = more potent) results, for comparison:
>>> quantitative_readout("TTGAACTGCATCTTCTGGTGCT")
0.911
>>> quantitative_readout("TAGAACATGATGAGTGCCGACT")
-0.938
>>> quantitative_readout("AAAACTGTTGTTATGTTCCCAA")
-0.801
>>> quantitative_readout("TTGCAGACTGTGACCACCCGAA")
0.116
>>> quantitative_readout("TTGCAGAGGAACAAGAAGGCTG")
-0.195

So, `AAGCACAGCAGGTCGCTCTTGC` ? Its sensor-assay potency score (higher = more potent) was 0.0599

So, `TTGAGTTGGTGCTTTGACTCAT` ? Its sensor-assay potency score (higher = more potent) was 0.454

---

- ASSAY_TARGET: ADAP1
- RUN_DESCRIPTION: pooled miR-30 sensor sort-seq; sequence = guide strand
- PARTICULARS: shRNA
Decision: sensor-assay potency score (higher = more potent) >= -0.7 yields class 1, all other cases yield class 0.

>>> assigned_category("TGAAATACTTCAGAGCACCCTC")
"class 1"

Exam item: decide whether the reported sensor-assay potency score (higher = more potent) for `TCTGTCAGCACAAACTTCCGGC` is at least -0.7.
class 1

Exam item: decide whether the reported sensor-assay potency score (higher = more potent) for `TTCTGTCAGCACAAACTTCCGG` is at least -0.7.
class 1

Exam item: decide whether the reported sensor-assay potency score (higher = more potent) for `TAGATGAAGATGTTACGGGTGC` is at least -0.7.
class 1

Exam item: decide whether the reported sensor-assay potency score (higher = more potent) for `TCGTTCTGTCAGCACAAACTTC` is at least -0.7.
class 0

Exam item: decide whether the reported sensor-assay potency score (higher = more potent) for `TTCTGTTGAAATACTTCAGAGC` is at least -0.7.
class 1

---

- ASSAY_TARGET: HMGB2
- RUN_DESCRIPTION: pooled miR-30 sensor sort-seq; sequence = guide strand
- PARTICULARS: shRNA
MEASURED_ENDPOINT: sensor-assay potency score (higher = more potent)
Keep the answer to the number alone.

>>> quantitative_readout("TTTAGGAACATTCAACATCAGA")
-0.879
>>> quantitative_readout("TTCTTCTTGTGCTCTTCCCGGC")
-0.526
>>> quantitative_readout("TTTGCAGACATGGTCTTCCATC")
-0.617
>>> quantitative_readout("TTAGCTTAGCTGCTTTCTGTTC")
-0.873

So, `TATCTTTGGCTGACTGCTCAGA` ? Its sensor-assay potency score (higher = more potent) was -0.772

So, `TTTAGGAGCATTGGGGTCCTTT` ? Its sensor-assay potency score (higher = more potent) was -0.857

So, `TTCTTCTTCTTTGAGCCTGTTG` ? Its sensor-assay potency score (higher = more potent) was -0.484

So, `TTTAGCTTAGCTGCTTTCTGTT` ? Its sensor-assay potency score (higher = more potent) was -0.377

---

- ASSAY_TARGET: ZKSCAN4
- RUN_DESCRIPTION: pooled miR-30 sensor sort-seq; sequence = guide strand
- PARTICULARS: shRNA
Listed below: sensor-assay potency score (higher = more potent) values for each entry.
Keep the answer to the number alone.

Some sequences with known sensor-assay potency score (higher = more potent) results, for comparison:
>>> quantitative_readout("AACCTGGAGAACTCTATCGTGT")
-0.756
>>> quantitative_readout("TGAACTTTGAGCAAAACTCTTT")
-0.0856
>>> quantitative_readout("TAGTCTGTATTTCACCACCAAG")
-1.77

So, `TTCAATAAGACTTCTATTCCGT` ? Its sensor-assay potency score (higher = more potent) was 0.355

So, `TTCTGCTTTCTTTGTAACCTGC` ? Its sensor-assay potency score (higher = more potent) was -0.00454

---

- ASSAY_TARGET: TPPP3
- RUN_DESCRIPTION: pooled miR-30 sensor sort-seq; sequence = guide strand
- PARTICULARS: shRNA
Listed below: sensor-assay potency score (higher = more potent) values for each entry.
Keep the answer to the number alone.

>>> quantitative_readout("ACTGTCGTCCAGGATGTCCTGC")
-0.739
>>> quantitative_readout("TTGGTCGCCAGCTCTTCCAGGG")
-0.176
>>> quantitative_readout("TCGTCCAGGATGTCCTGCCGTC")
-0.707

Kindly review the next sequence as well.
# value of sensor-assay potency score (higher = more potent), TPPP3, item `TTGAACTCCTCATAGTTGATGA` = -0.547

---

- ASSAY_TARGET: TRPC4
- RUN_DESCRIPTION: pooled miR-30 sensor sort-seq; sequence = guide strand
- PARTICULARS: shRNA
Listed below: sensor-assay potency score (higher = more potent) values for each entry.
Keep the answer to the number alone.

Some sequences with known sensor-assay potency score (higher = more potent) results, for comparison:
>>> quantitative_readout("TAGATGTTGAGTCTGGAGCGTG")
-0.516
>>> quantitative_readout("TATTGTTCCAAAACTTTCTGGC")
0.627
>>> quantitative_readout("TATTTCTCTCAAGTGGTCCTGC")
0.27
>>> quantitative_readout("TTGACGAGCAACTTCTTCTGAA")
0.0812
>>> quantitative_readout("TTGAATGGACACACTCTCTTTC")
-0.228

So, `TTTGGTATTATAGGAACCGTGT` ? Its sensor-assay potency score (higher = more potent) was -0.294

So, `TATGAGACTATTGTCATCTCGG` ? Its sensor-assay potency score (higher = more potent) was 0.182

So, `TATACTAGAGTCCTCTTCTTTT` ? Its sensor-assay potency score (higher = more potent) was -1.18

So, `TAACACACATTGTTCACTGAGA` ? Its sensor-assay potency score (higher = more potent) was -0.436

---

Listed below: sensor-assay potency score (higher = more potent) values for each entry.
- ASSAY_TARGET: LECT2
- RUN_DESCRIPTION: pooled miR-30 sensor sort-seq; sequence = guide strand
- PARTICULARS: shRNA
Keep the answer to the number alone.

Some sequences with known sensor-assay potency score (higher = more potent) results, for comparison:
>>> quantitative_readout("TTTGAGCAGAGTACTGTCCACA")
-0.808
>>> quantitative_readout("TTCCAGATATTCGAACACCATT")
-1.45
>>> quantitative_readout("ATGTAGAACATTTTGACACAAA")
-1.54
>>> quantitative_readout("TTGTATGCCAGGATAAACTTTC")
-0.895
>>> quantitative_readout("TTATTGATAGCATTCTTGTTTT")
-1.1

Kindly review the next sequence as well.
So, `ATTATTGATAGCATTCTTGTTT` ? Its sensor-assay potency score (higher = more potent) was -0.52
